# Experimental Target: Mitogen-activated protein kinase kinase kinase 3 (Homo sapiens)
# Protocol: Inhibition of MAP3K3 at 1 uM
Entries and their measured inhibition follow.
Measured Attribute: inhibition

[[record]]
smiles_representation = "CC(=O)N1CCN(c2cc(-c3cnc4c(c3)N(Cc3cc(Cl)ccc3C(F)(F)F)CCN4)ccn2)CC1"
result = "< 50%"

[[record]]
smiles_representation = "CN1CCN(c2ccc(-c3cnc4c(c3)N(Cc3cc(Cl)ccc3C(F)(F)F)CCN4)cn2)CC1"
result = "< 50%"

[[record]]
smiles_representation = "CN1CCN(c2ccc(-c3cnc4c(c3)N(Cc3cc(Cl)ccc3Cl)CCN4)cn2)CC1"
result = "< 50%"

[[record]]
smiles_representation = "CN1CCN(c2ccc(-c3cnc4c(c3)N(Cc3c(F)ccc(F)c3Cl)CCN4)cn2)CC1"
result = "< 50%"

[[record]]
smiles_representation = "CN1CCN(c2ccc(-c3cnc4c(c3)N(Cc3cc(F)ccc3F)CCN4)cn2)CC1"
result = "< 50%"

[[record]]
smiles_representation = "FC(F)(F)c1ccc(Cl)cc1CN1CCNc2ncc(-c3ccnc(N4CCNCC4)c3)cc21"
result = "88%"

